Data origin: patent US20240101683A1

STUDY SYSTEM: T1, rhFGFR2IIIb-Fc (recombinant human FGFR2IIIb-Fc) (human, UniProt P21802-3 22-378, limits assumed)
T1 construct: Coated on the ELISA plate at 2 ug/mL; not shown: Fc part
T1 sequence (P21802 other isoform, or with tags, fused parts or gaps limits assumed): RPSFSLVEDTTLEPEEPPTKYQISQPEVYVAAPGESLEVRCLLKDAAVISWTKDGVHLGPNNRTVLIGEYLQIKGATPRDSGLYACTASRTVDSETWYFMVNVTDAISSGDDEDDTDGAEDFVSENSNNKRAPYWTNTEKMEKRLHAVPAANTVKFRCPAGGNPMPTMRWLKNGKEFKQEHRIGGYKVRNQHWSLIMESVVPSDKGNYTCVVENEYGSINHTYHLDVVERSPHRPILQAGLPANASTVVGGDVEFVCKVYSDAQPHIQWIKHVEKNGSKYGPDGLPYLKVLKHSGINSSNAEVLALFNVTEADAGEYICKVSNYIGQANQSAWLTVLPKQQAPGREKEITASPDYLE
EXPERIMENTAL DETAILS: ELISA, coated rhFGFR2IIIb-Fc, anti-Fab HRP
Note to self: use Yes only for EC50 readings below 0.6 nM; a reading exactly at 0.6 nM still gets No.

Some entries whose results are on file:
1) FWB1908 (antibody, V domains shown) VH: QVQLVQSGAEVKKPGSSVKVSCKASGYIFTTYNVHWVRQAPGQGLEWIGSIYPDNGDSTYNQNFKGRATITADKSTSTAYMELSSLRSEDTAVYYCARGDFAYWGQGTLVTVSS VL: DIQMTQSPSSLSASVGDRVTITCKGSQGVSNDVAWYQQKPGKAPKLLIYSASYRYTGVPSRFSGSGSGTDFTFTISSLQPEDIATYYCQQHSTTPYTFGQGTKLEIK: Yes
2) FWB1921 (antibody, V domains shown) VH: QVQLVQSGAEVKKPGSSVKVSCKASGYIFTSYNVHWVRQAPGQGLEWIGSIYPDNGDSTYNQNYRGRATITADKSTSTAYMELSSLRSEDTAVYYCARGDFAYWGQGTLVTVSS VL: DIQMTQSPSSLSASVGDRVTITCKGSNGVSNDIAWYQQKPGKAPKLLIYSASYRYSGVPSRFSGSGSGTDFTFTISSLQPEDIATYYCQQHSTTPYTFGQGTKLEIK: No
3) FWB1916 (antibody, V domains shown) VH: QVQLVQSGAEVKKPGSSVKVSCKASGYIFTSYNVHWVRQAPGQGLEWIGSIYPDNGDSSYNQNYKGRATITADKSTSTAYMELSSLRSEDTAVYYCARGDFAYWGQGTLVTVSS VL: DIQMTQSPSSLSASVGDRVTITCKASNGISNDIAWYQQKPGKAPKLLIYSASYRYSGVPSRFSGSGSGTDFTFTISSLQPEDIATYYCQQHSTTPYTFGQGTKLEIK: Yes
4) FWB1912 (antibody, V domains shown) VH: QVQLVQSGAEVKKPGSSVKVSCKASGYIFTSYNVHWVRQAPGQGLEWIGSIYPDNGDSSYNQNYKGRATITADKSTSTAYMELSSLRSEDTAVYYCARGDYAYWGQGTLVTVSS VL: DIQMTQSPSSLSASVGDRVTITCKASNGVSNDIAWYQQKPGKAPKLLIYSASYRYSGVPSRFSGSGSGTDFTFTISSLQPEDIATYYCQQHSTTPYTFGQGTKLEIK: No

**Query** Quick check: EC50 of FWB1906 (antibody, V domains shown) VH: QVQLVQSGAEVKKPGSSVKVSCKASGYIFTSYNVHWVRQAPGQGLEWIGSIYPDNGDSSYNQNYRGRATITADKSTSTAYMELSSLRSEDTAVYYCARGDFAYWGQGTLVTVSS VL: DIQMTQSPSSLSASVGDRVTITCKASNGISNDIAWYQQKPGKAPKLLIYSASYRYSGVPSRFSGSGSGTDFTFTISSLQPEDIATYYCQQHSTTPYTFGQGTKLEIK under 0.6 nM?
**Result** Yes
